# Test system: PCSK9 gene
# testProtocol: PCSK9 gRNA/SpCas9 editing in primary cynomolgus hepatocytes (Tables 2, 22)
# Format: cell-based, cynomolgus monkey
# conditionsUsed: SpCas9 mRNA MS002, 625 ng/test article/mL, rep1
In the oligonucleotide strings, read from the 5' end, every base follows the letter of its sugar. An asterisk marks phosphorothioate; unmarked linkages are phosphodiester. Other units and linkages are bracketed, terminal groups are in braces. A string of capitals states the bases alone. m = 2'-O-methyl; r = 2'-OH (RNA)
measuredProperty: Cynomolgus Primary Hepatocytes-% Editing (%)
Response body: numeric value in %, unit text excluded.

Please review the following examples before continuing.
GA404 (nucleic acid) guide: mU*mC*mA*rGrCrUrCrCrArGrGrCrGrGrUrCrCrUrGrGmGrUrUrUrUrArGmAmGmCmUmArGmAmAmAmUmAmGmCmAmArGrUrUmArAmArAmUrAmAmGmGmCmUmArGrUmCmCrGrUrU*rAmUmCrArAmCmUmUrGmAmAmAmAmAmGmUmGrGmCmAmCmCmGmAmGmUmCmGmGmUmGmCmU*mU*mU*mUmUrUmU; 31.63
GA403 (nucleic acid) guide: mU*mC*mA*rGrCrUrCrCrArGrGrCrGrGrUrCrCrUrGrGmGrUrUrUrUrArGmAmGmCmUmArGmAmAmAmUmAmGmCmAmArGrUrU*mArAmArAmUrAmAmGmGmCmUmArGrUmCmCrGrUrUrAmUmCrArAmCmUmUrGmAmAmAmAmAmGmUmGrGmCmAmCmCmGmAmGmUmCmGmGmUmGmCmU*mU*mU*mUmUrUmU; 38.28

Task: Query: Cynomolgus Primary Hepatocytes-% Editing; subject: GA396 (nucleic acid) guide: mU*mC*mA*rGrCrUrCrCrArGrGrCrGrGrUrCrCrUrGrGmGrUrUrUrUrArGmAmGmCmUmArGmAmAmAmUmAmGmCmAmArGrUrU*mArAmArAmUrAmAmGmGmCmUmArGrUmCmCrGrUrUrAmUmCrArAmCmUmUrGmAmAmAmAmAmGmUmGrGmCmAmCmCmGmAmGmUmCmGmGmUmGmCmU*mU*mU*mUmUmUmU
Result: 44.44
